- experimental.system: T1, human SIRPγ on human CD3+ T-cells (human, UniProt Q9P1W8 29-387)
- T1 construct: whole, on cells
- T1 sequence (Q9P1W8 29-387): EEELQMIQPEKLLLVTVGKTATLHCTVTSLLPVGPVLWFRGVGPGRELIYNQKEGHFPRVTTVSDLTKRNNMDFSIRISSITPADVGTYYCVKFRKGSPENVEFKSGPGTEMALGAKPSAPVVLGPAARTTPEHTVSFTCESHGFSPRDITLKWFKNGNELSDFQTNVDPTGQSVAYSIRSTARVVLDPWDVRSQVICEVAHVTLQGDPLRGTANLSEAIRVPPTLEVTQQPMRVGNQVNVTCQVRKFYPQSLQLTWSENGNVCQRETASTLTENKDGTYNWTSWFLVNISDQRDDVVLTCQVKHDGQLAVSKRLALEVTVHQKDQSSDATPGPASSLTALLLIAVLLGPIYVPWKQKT
- measurement.protocol: flow cytometry, whole blood, CD3+ T-cells, donor #1
metric: EC50 (µg/mL)
The answer is to be given in µg/mL; state only the numeric part.

binder="AB115-LALA (AB115 human IgG1-kappa, LALA) (antibody, V domains shown) VH: VQLVESGGGVVRPGESLRLSCAASGFSFSSYAMNWVRQAPGEGLEWVSRINSGGGGTDYAESVKGRFTISRDNSENTLYLQMNSLRAEDTAVYYCAKQYDWNSFFDYWGLGALVTVSS VL: ETVLTQSPATLSVSPGERATLSCRASQTVGSKLAWHQQKPGQAPRLLIYDATNRATGISDRFSGSGSGTDFTLTISSLQTEDSAVYYCQQYYYWPPYRFGGGTKVEIKR" val=0.15
binder="AB119-LALA (AB119 human IgG1-kappa, LALA) (antibody, V domains shown) VH: VQLLESGGGVVQPGGSLRLSCAASGFSFSNFAMTWVRQAPGEGLEWVSTIGSGDTYYADSVKGRFTISRDNSKNTLYLQMNSLRAEDTAVYYCAKDSTVSWSGDFFDYWGLGTLVTVSS VL: EIVLTQSPATLSVSPGERATFSCRASQNVKNDLAWYQQRPGQAPRLLIYAARIRETGIPERFSGSGSGTEFTLTITSLQSEDFAVYYCQQYYDWPPFTFGGGTKVEIKR" val=0.01

Moving on to the next binder.
input: Dear colleague, I am looking for the recorded EC50 of the following binder: 29AM4-5-LALA (IgG1) (antibody, V domains shown, human IgG1 LALA, kappa; also called 29AM4-5huIgG1LALA) VH: EVQLVESGGGLVQPGGSLRLSCAASGFNISYYFIHWVRQAPGKGLEWVASVYSSFGYTYYADSVKGRFTISADTSKNTAYLQMNSLRAEDTAVYYCARFTFPGLFDGFFGAYLGSLDYWGQGTLVTVSS VL: DIQMTQSPSSLSASVGDRVTITCRASQSVSSAVAWYQQKPGKAPKLLIYSASSLYSGVPSRFSGSRSGTDFTLTISSLQPEDFATYYCQQAVNWVGALVTFGQGTKVEIKR
output: 0.07
